Data credit: patent US20220396628A1

Target: anti-CLL-1 CAR (chimeric antigen receptor presenting the anti-CLL-1 scFv), expressed on primary human T cells
Assay: flow cytometry histogram; hybridoma clonal supernatant on anti-CLL-1 CAR-transduced primary human T cells, detected with FITC goat anti-rabbit F(ab')2; fraction of events in the CAR+ gate
readout: CAR+
Number only, no unit.

[
  {
    "binder": "KIP-10 Clone 160-1 (antibody, V domains shown) VH: QSLEESGGDLVKPGASLTLTCTASGFSFSSNYFVCWVRQAPGKGLEWVGCINPGSGRTYSASWAKGRFTISKSSSTTVTLQMTSLTAADTATYFCARDRPGSDDYYMRDLWGPGTLVTVSS VL: DPVMTQTPASVSEPVGGTVTINCQASESIGSSLAWYQQKPGQPPKLLIYAASTLASGVSSRFKGSGSGTQFTLTISDLECADAATYYCQCSYYLNTYVGNPFGGGTEVVVK",
    "assay value": 55.6
  },
  {
    "binder": "KIP-10 Clone 148-4 (antibody, V domains shown) VH: QEQLEESGGDLVKPEGSLTLTCTASGFSFSGSFDVCWVRQAPGKGLEWIACIVVDSSDRTWYASWAKGRFTISKPSSTTVTLQMTSLTAADTATYFCARNDDTSGWGFNLWGPGTLVTVSS VL: DVTMTQTPASVSEPVGGTVTIKCQASQSIGSALAWYQQKPGQPPKLLIWTASNLASGVSSRFKGSRSGTDFTLTISDLECADAATYYCQCTYYGSSYINAFGGGTEVVVK",
    "assay value": 55.8
  }
]

Record KIP-10 Clone 180-2 (antibody, V domains shown) VH: QSLEESGGGLVQPGGSLKLSCKASGFIFSDNYYMCWVRQAPGKGLELIACIYGGHIDTTYYASWVSGRFTSSKTSSTTVTLQLTSLTAADTATYFCARRTIYDDNDDYSYALHLWGPGTLVTVSS VL: ALVMTQTPSSVSEPVGGTVTINCQASQSISNLLAWYQQKPGQPPKLLIYGASNLESGVPSRFKGSGSGTEYTLTISGVECADAATYYCQQGDSSSNLDNTFGGGTEVVVK . Reported CAR+: 57.7

The binder listed as KIP-10 Clone 147-1 (antibody, V domains shown) VH: QEQLEESGGDLVKPEGSLTLTCTASGFSFSGDYYMCWVRQAPGKGLEWIACIYVGSYIYSFYASWAKGRFTISRTSSTTVTLQMTSLTAADTATYFCARDPFATDSDVVSLWGPGTLVTVSS VL: AVVLTQTPASVSAAVGGTVTINCQASQSISTVLAWYQQKPGQRPKLLIYWASTLASGVPSRFKGSGSGTQFTLTISGVECDDAATYYCAGYKSYSNDDGAFGGGTEVVVK has a reported CAR+ of 57.7
